Recorded values, source patent US12398154B2.

tested target: KRas Q61H (Homo sapiens, UniProt P01116, Q61H)
Construct: Biotinylated KRas (corresponding to amino acids 1-169, produced at Accelegan Inc.); biotin (biotinylated); purchased Accelegan Inc
Sequence (P01116 1-169 isoform P01116-2 Q61H): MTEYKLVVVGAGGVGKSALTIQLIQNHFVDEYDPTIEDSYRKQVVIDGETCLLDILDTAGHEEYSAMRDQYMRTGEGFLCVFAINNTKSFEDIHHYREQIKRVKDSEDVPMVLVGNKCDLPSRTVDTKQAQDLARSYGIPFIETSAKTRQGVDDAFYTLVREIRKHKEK
method description: KRas binding assay (TR-FRET displacement)
Hi! Could you tag entries with IC50 below 3000 nM as t, and those at or above as f? Much appreciated.

Field: example entries. Status: answers known.
molecule | group label
O=CNC1CCCN(c2nc(OCC34CCCN3CCC4)nc3c(F)c(-c4cccc5cccc(F)c45)ncc23)C1 (stereo not drawn) [Example 242] | f
C[C@@H]1C[C@@H](O)CN(c2nc(OCC34CCCN3CCC4)nc3c(F)c(-c4cccc5cccc(F)c45)ncc23)C1 [Example 112] | f

Find out if reported IC50 for CCc1c(F)ccc2cccc(-c3ncc4c(N5CCCC6(CNC(=O)C6)C5)nc(OC[C@@]56CCCN5C[C@H](F)C6)nc4c3F)c12 (stereo partly drawn) [Example 37] is less than 3000 nM
t

// next record O=C1CC2(CCCN(c3nc(OCC45CCCN4CCC5)nc4c(F)c(-c5cccc6cccc(F)c56)ncc34)C2)N1 (stereo not drawn) [Example 97]
t

---

tested target: KRas G12D (Homo sapiens, UniProt P01116, G12D);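 note: TR-FRET displacement binding assay on KRas, read after a one-hour incubation at room temperature, IC50 fitted from percent-of-control values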
Sequence (P01116 1-169 isoform P01116-2 G12D): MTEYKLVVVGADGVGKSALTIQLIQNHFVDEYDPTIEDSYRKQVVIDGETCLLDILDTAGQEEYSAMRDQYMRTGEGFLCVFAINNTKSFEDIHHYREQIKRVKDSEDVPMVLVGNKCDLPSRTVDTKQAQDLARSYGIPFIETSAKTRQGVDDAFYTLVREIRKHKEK
method description: biochemical
pIC50: −log10 of the molar value.
// map pIC50 to label using bottom end = under 6, midrange = from 6 up to 7, top end = 7 and over

Field: example entries. Status: answers known.
compound | group label
CC1(O)CCCN(c2nc(OCC34CCCN3CCC4)nc3c(F)c(-c4cccc5cccc(C6CC6)c45)ncc23)C1 (stereo not shown) | midrange
OCC1CN(c2nc(OCC34CCCN3CCC4)nc3c(F)c(-c4cccc5cccc(F)c45)ncc23)CCC1O (stereo not shown) | bottom end
O=C1C[C@]2(CCCN(c3nc(OC[C@@]45CCCN4C[C@H](F)C5)nc4c(F)c(-c5cc(O)cc6ccc(F)c(Cl)c56)ncc34)C2)N1 | top end
O=C1CC2(CCCN(c3nc(OCC45CCCN4CCC5)nc4c(F)c(-c5cccc6cccc(F)c56)ncc34)C2)N1 (stereo not shown) | midrange

Now for another entry.
Which class does O=C1NCC2(CCCN(c3nc(OCC45CCCN4CCC5)nc4c(F)c(-c5cccc6cccc(CO)c56)ncc34)C2)N1 (stereo not shown) fall in?
midrange

---

tested target: KRas G13D (Homo sapiens, UniProt P01116, G13D)
Construct: Biotinylated KRas (corresponding to amino acids 1-169, produced at Accelegan Inc.); biotin (biotinylated); purchased Accelegan Inc
Sequence (P01116 1-169 isoform P01116-2 G13D): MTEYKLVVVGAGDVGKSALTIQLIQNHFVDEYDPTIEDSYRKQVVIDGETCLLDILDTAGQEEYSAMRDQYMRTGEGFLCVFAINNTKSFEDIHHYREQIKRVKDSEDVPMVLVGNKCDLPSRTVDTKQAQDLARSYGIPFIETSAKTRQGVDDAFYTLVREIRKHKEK
method description: KRas binding assay (TR-FRET displacement)
metric: log10(IC50) (log10 of the value in nM)
Values are log10 of IC50 in nM.

Enter reported log10(IC50) observed with KRas G13D (Homo sapiens, UniProt P01116, G13D) for O=CNC1CCN(c2nc(OCC34CCCN3CCC4)nc3c(F)c(-c4cccc5cccc(F)c45)ncc23)CC1 [Example 244]
3.69

// next record Fc1c(-c2cccc3cccc(F)c23)ncc2c(NCc3ncc4cc[nH]c4n3)nc(OCC34CCCN3CCC4)nc12 [Example 92]
3.93

// next record CS(=O)(=O)C1CCCCCN(c2nc(OCC34CCCN3CCC4)nc3c(F)c(-c4cccc5cccc(F)c45)ncc23)C1 (stereo not shown) [Example 251]
3.58

---

tested target: KRas G12R (Homo sapiens, UniProt P01116, G12R);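 note: TR-FRET displacement assay of compound binding to KRas, read after one hour at room temperature, potency from a four-parameter fit of percent-of-control values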
Sequence (P01116 1-169 isoform P01116-2 G12R): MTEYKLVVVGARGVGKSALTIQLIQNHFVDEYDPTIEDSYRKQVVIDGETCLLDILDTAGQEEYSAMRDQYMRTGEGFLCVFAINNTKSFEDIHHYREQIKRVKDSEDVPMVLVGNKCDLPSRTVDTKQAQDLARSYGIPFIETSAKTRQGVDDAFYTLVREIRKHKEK
method description: biochemical
metric: pIC50
Give only the number. pIC50 is defined as minus log10 of concentration in molar units.

These solved cases illustrate the format of a correct answer.
compound | pIC50
CCc1c(F)ccc2cc(O)cc(-c3ncc4c(N5CCCOC(C)(C)C5)nc(OC[C@@]56CCCN5C[C@H](F)C6)nc4c3F)c12 | 6.75
O=C1CC(CNc2nc(OCC34CCCN3CCC4)nc3c(F)c(-c4cccc5cccc(Cl)c45)ncc23)CN1 (stereo not drawn) | 6.32
C#Cc1cccc2cccc(-c3ncc4c(N5C[C@@H]6C(=O)NC(=O)[C@@H]6C5)nc(OCC56CCCN5CCC6)nc4c3F)c12 | 6.76
O=C(c1cc2n(n1)CCCN(c1nc(OCC34CCCN3CCC4)nc3c(F)c(-c4cccc5cccc(F)c45)ncc13)C2)N1CCC1 | 5.31

Enter reported pIC50 observed with KRas G12R (Homo sapiens, UniProt P01116, G12R) for Fc1c(-c2cccc3cccc(Cl)c23)ncc2c(N3CCCC(c4c[nH]nn4)C3)nc(OCC34CCCN3CCC4)nc12 (stereo not drawn)
5.38

// next record Fc1c(-c2cccc3cccc(F)c23)ncc2c(N3C[C@@H]4CC[C@@H](C4)C3)nc(OCC34CCCN3CCC4)nc12
5.17

---

Tested on: pERK in PSN1 cells
method description: Inhibition of KRas phosphorylation of ERK (Cisbio HTRF pERK assay)
test parameters: Homo sapiens, PSN1, 3 h, read-out: Inhibition (HTRF IC50) of KRas-mediated Phosphorylation of ERK, PSN1
Reported IC50 is given for each of the following compounds.
Numbers only; they are read as µM.

These solved cases illustrate the format of a correct answer.
compound | scale unit | IC50
C#Cc1c(F)ccc2cc(O)cc(-c3ncc4c(N5CC6CC(O)CC5C6)nc(OC[C@@]56CCCN5C[C@H](F)C6)nc4c3F)c12 (stereo partly drawn) | µM | 0.748
CCc1c(F)ccc2cc(O)cc(-c3ncc4c(N5CCC[C@@](C)(O)C5)nc(OC[C@@]56CCCN5[C@H](COC(=O)N(C)C)CC6)nc4c3F)c12 | µM | 0.407
C#Cc1c(F)ccc2cc(O)cc(-c3ncc4c(N5CCC[C@](C)(O)C5)nc(OC[C@@]56CCCN5C[C@H](F)C6)nc4c3F)c12 | µM | 3.34
CCc1cccc2cc(O)c(F)c(-c3ncc4c(N5CCC[C@@](C)(O)C5)nc(OC[C@@]56CCCN5C[C@H](F)C6)nc4c3F)c12 | µM | 9.29

Requested field: IC50. Item: CCc1c(F)ccc2cc(O)cc(-c3ncc4c(N5CCCC6(CCC(O)C6)C5)nc(OC[C@@]56CCCN5C[C@H](F)C6)nc4c3F)c12 (stereo partly drawn)
5.1

---

Tested on: pERK in MKN1 cells
method description: Inhibition of KRas phosphorylation of ERK (Cisbio HTRF pERK assay)
test parameters: Homo sapiens, MKN-1, 3 h, read-out: Inhibition (HTRF IC50) of KRas-mediated Phosphorylation of ERK, MKN1
Reported pIC50 is given for each of the following compounds.
Give only the number. pIC50 is defined as minus log10 of concentration in molar units.

These solved cases illustrate the format of a correct answer.
compound | pIC50
O=C1NCC2(CCCN(c3nc(OC[C@@]45CCCN4C[C@H](F)C5)nc4c(F)c(-c5cc(O)cc6ccc(F)c(F)c56)ncc34)C2)N1 (stereo partly drawn) [Example 445] | 5.09
CCc1c(F)ccc2cc(O)cc(-c3ncc4c(NC56CC(CO)(C5)C6)nc(OC[C@@]56CCCN5C[C@H](F)C6)nc4c3F)c12 [Example 167] | 8.52
C[C@@]1(O)CCCN(c2nc(OC[C@@]34CCCN3C[C@H](F)C4)nc3c(F)c(-c4cc(O)cc5ccc(F)c(F)c45)ncc23)C1 [Example 514] | 8.30
CCc1c(F)ccc2cccc(-c3ncc4c(N5CCC[C@@](C)(O)C5)nc(OC[C@@]56CCCN5C[C@H](F)C6)nc4c3F)c12 [Example 16] | 6.56
C#Cc1c(F)ccc2cc(O)cc(-c3ncc4c(N5CC6CC(O)CC5C6)nc(OC[C@@]56CCCN5C[C@H](F)C6)nc4c3F)c12 (stereo partly drawn) [Example 390] | 8.10

Requested field: pIC50. Item: O=C1NCC12CCCN(c1nc(OC[C@@]34CCCN3C[C@H](F)C4)nc3c(F)c(-c4cc(O)cc5ccc(F)c(Cl)c45)ncc13)C2 (stereo partly drawn) [Example 424]
7.02

// next record CCc1c(F)ccc2cc(O)cc(-c3ncc4c(NCC5CC(=O)N5)nc(OC[C@@]56CCCN5C[C@H](F)C6)nc4c3F)c12 (single isomer, unassigned) [Example 373]
6.99

// next record O=C1NCC2(CCCN(c3nc(OC[C@@]45CCCN4C[C@H](F)C5)nc4c(F)c(-c5cc(O)cc6ccc(F)c(Br)c56)ncc34)C2)N1 (stereo partly drawn) [Example 409]
7.03

// next record C#Cc1c(F)ccc2cc(O)cc(-c3ncc4c(N5CCC[C@](C)(O)C5)nc(OC[C@@]56CCCN5C[C@H](F)C6)nc4c3F)c12 [Example 10]
7.89

// next record O=C1NC(=O)C2CN(c3nc(OC[C@@]45CCCN4C[C@H](F)C5)nc4c(F)c(-c5cc(O)cc6ccc(F)c(Cl)c56)ncc34)CC12 (stereo partly drawn) [Example 423]
6.96

// next record C[C@@]1(O)CCCN(c2nc(OC[C@@]34CCCN3C[C@H](F)C4)nc3c(F)c(-c4cc(O)cc5ccc(F)c(Br)c45)ncc23)C1 [Example 399]
9.00

// next record CCc1c(F)ccc2cc(O)cc(-c3ncc4c(N5CCCOCC5)nc(OC[C@@]56CCCN5C[C@H](F)C6)nc4c3F)c12 [Example 315]
8.30
